tested on: SK-OV-3 ovarian; test: NCI tumour cell line growth inhibition, 48 h
metric_name: TGI

Look over these answered cases.
1. NC(C(=O)O)c1cc(=O)[nH]o1 (stereo unspecified) :: > 100 µM
2. C=C(CN1CCc2ccccc2C1)c1ccc(CCC(=O)Nc2ccccc2N)cc1 :: > 100 µM
3. O=c1c2ccccc2nc(-c2ccccc2Cl)n1NCC1(O)OCC(O)C(O)C1O (stereo unspecified) :: > 100 µM
4. C=CC(=O)N1CC2(CCC(n3nc(-c4ccc(Oc5ccccc5)cc4)c4c(N)ncnc43)CC2)C1 :: 0.787 µM

Q. # query: TGI of entry `CCN(CC)S(=O)(=O)c1ccc2nc(NC(=O)OC)[nH]c2c1`
A. > 100 µM

Q. // same read-out, input: `CCc1ccccc1N1C(=O)C(=O)C(c2nc3ccccc3s2)C(=O)C1=O`
A. > 100 µM
